Test system: KM12 (TPM3-TRKA)
Assay: Cell proliferation assay (CellTiter-Glo)
Type: cell-based
Settings: Homo sapiens, anti-cell proliferation, 72 hours
Property: IC50; scope: individual molecules
Attribute measured: IC50

# Molecule, Target or system, Attribute measured, Measurement
rows = [
    ("C[C@H]1CNC(=O)c2cnn3cc4c(nc23)N(Cc2cc(F)ccc2O1)[C@@H](C)CO4 [Compound 4]", "KM12 (TPM3-TRKA)", "IC50", "0.2 nM"),
    ("CC[C@@H]1COc2cn3ncc4c3nc2N1Cc1cc(F)cnc1OC[C@@H](C)NC4=O [Compound 15]", "KM12 (TPM3-TRKA)", "IC50", "< 0.2 nM"),
    ("C[C@@H]1COc2cn3ncc4c3nc2N1Cc1cc(F)cnc1OCCC1(CCC1)NC4=O [Compound 96]", "KM12 (TPM3-TRKA)", "IC50", "< 0.2 nM"),
    ("C[C@@H]1COc2cn3ncc4c3nc2N1Cc1cc(F)cnc1OC[C@@H](C(F)F)NC4=O [Compound 97]", "KM12 (TPM3-TRKA)", "IC50", "< 0.2 nM"),
    ("C[C@@H]1COc2c(F)cc(F)cc2CN2c3nc4c(cnn4cc3OC[C@H]2C)C(=O)N1 [Compound 16]", "KM12 (TPM3-TRKA)", "IC50", "< 0.2 nM"),
    ("C[C@@H]1COc2cn3ncc4c3nc2N(Cc2cc(F)cnc2OC[C@@H](C)CNC4=O)C1 [Compound 100]", "KM12 (TPM3-TRKA)", "IC50", "72.8 nM"),
    ("C[C@@H]1COc2ncc(F)cc2CN2c3nc4c(cnn4cc3OCC[C@H]2C)C(=O)N1 [Compound 22]", "KM12 (TPM3-TRKA)", "IC50", "< 0.2 nM"),
    ("CC1CCNC(=O)c2cnn3cc4c(nc23)N(Cc2cc(F)cnc2O1)[C@H](C)CO4 (stereo partly shown) [Compound 69]", "KM12 (TPM3-TRKA)", "IC50", "< 0.2 nM"),
    ("C[C@@H]1COc2ncc(F)cc2CN2c3nc4c(cnn4cc3OC[C@H]2c2ccccc2)C(=O)N1 [Compound 46]", "KM12 (TPM3-TRKA)", "IC50", "< 0.2 nM"),
    ("C[C@@H]1COc2cn3ncc4c3nc2N1Cc1cc(F)cnc1OC[C@@H](F)CNC4=O [Compound 78]", "KM12 (TPM3-TRKA)", "IC50", "< 0.2 nM"),
    ("C[C@@H]1COc2cn3ncc4c3nc2N1Cc1cc(F)cnc1OCC(F)(F)CNC4=O [Compound 79]", "KM12 (TPM3-TRKA)", "IC50", "< 0.2 nM"),
    ("CC[C@@H]1COc2cn3ncc4c3nc2N1Cc1cc(F)cnc1OCC[C@H](C)NC4=O [Compound 75]", "KM12 (TPM3-TRKA)", "IC50", "< 0.2 nM"),
    ("C[C@@H]1COc2cn3ncc4c3nc2N1Cc1cc(F)cnc1O[C@H]1C[C@H](C1)NC4=O [Compound 95]", "KM12 (TPM3-TRKA)", "IC50", "< 0.2 nM"),
    ("C[C@@H]1COc2cn3ncc4c3nc2N1Cc1cc(F)cnc1OC[C@H](C)NC4=O [Compound 51]", "KM12 (TPM3-TRKA)", "IC50", "< 0.2 nM"),
    ("C[C@@H]1COc2cn3ncc4c3nc2N1Cc1cc(F)cnc1O[C@@H](C)CNC4=O [Compound 8]", "KM12 (TPM3-TRKA)", "IC50", "0.2 nM"),
    ("C[C@@H]1COc2ncc(F)cc2CN2c3nc4c(cnn4cc3OC[C@H]2C2CC2)C(=O)N1 [Compound 25]", "KM12 (TPM3-TRKA)", "IC50", "< 0.2 nM"),
    ("C[C@H]1CNC(=O)c2cnn3cc4c(nc23)N(Cc2cc(F)cnc2O1)C1(CO4)CC(F)(F)C1 [Compound 64]", "KM12 (TPM3-TRKA)", "IC50", "< 0.2 nM"),
    ("COC[C@H]1COc2ncc(F)cc2CN2c3nc4c(cnn4cc3OC[C@H]2C)C(=O)N1 [Compound 92]", "KM12 (TPM3-TRKA)", "IC50", "5.7 nM"),
    ("C[C@@H]1COc2ncc(F)cc2CN2c3nc4c(cnn4cc3OCC23CCCC3)C(=O)N1 [Compound 59]", "KM12 (TPM3-TRKA)", "IC50", "< 0.2 nM"),
    ("C[C@@H]1COc2cn3ncc4c3nc2N1Cc1cc(F)cnc1O[C@H]1CCC[C@H]1NC4=O [Compound 49]", "KM12 (TPM3-TRKA)", "IC50", "< 0.2 nM"),
    ("C[C@@H]1COc2cn3ncc4c3nc2N1Cc1cc(F)ccc1OCCNC4=O [Compound 3]", "KM12 (TPM3-TRKA)", "IC50", "0.2 nM"),
    ("C[C@H]1CNC(=O)c2cnn3cc4c(nc23)N(Cc2cc(F)cnc2OC1)[C@H](C)CO4 [Compound 35]", "KM12 (TPM3-TRKA)", "IC50", "< 0.2 nM"),
    ("CC[C@@H]1COc2cn3ncc4c3nc2N1Cc1cc(F)cnc1OCC1(CC1)NC4=O [Compound 72]", "KM12 (TPM3-TRKA)", "IC50", "< 0.2 nM"),
    ("C[C@@H]1COc2cn3ncc4c3nc2N(Cc2cc(F)ccc2OC[C@@H](C)NC4=O)C1 [Compound 31]", "KM12 (TPM3-TRKA)", "IC50", "< 0.2 nM"),
    ("CC[C@@H]1COc2cn3ncc4c3nc2N1Cc1cc(F)cnc1O[C@@H](C)CNC4=O [Compound 10]", "KM12 (TPM3-TRKA)", "IC50", "0.2 nM"),
]

Hello, the source for this data is patent US20210087206A1, in case you need it.
